Target: T1, matriptase (#3946-SE-010, R&D Systems) (UniProt Q9Y5Y6 615-855)
T1 sequence (looked up): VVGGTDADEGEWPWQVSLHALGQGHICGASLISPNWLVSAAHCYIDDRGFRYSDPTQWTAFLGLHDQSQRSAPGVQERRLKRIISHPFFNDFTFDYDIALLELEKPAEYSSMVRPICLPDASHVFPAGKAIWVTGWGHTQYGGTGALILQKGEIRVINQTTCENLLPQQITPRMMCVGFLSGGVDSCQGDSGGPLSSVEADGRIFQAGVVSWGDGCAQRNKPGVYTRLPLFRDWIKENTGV
Assay: cell-based or functional assay
kbt = C-terminal Arg ketobenzothiazole

>  <binder>
Ac-MQFR-kbt [MM3130 Ac-MQFR-kbt]

>  <readout_unit>
nM

>  <Matriptase (IC50 nM)>
0.552

$$$$
>  <binder>
Ac-PQFR-kbt [MM3123 Ac-PQFR-kbt]

>  <readout_unit>
nM

>  <Matriptase (IC50 nM)>
0.316

$$$$
>  <binder>
Ac-IQFR-kbt [MM3116 Ac-IQFR-kbt]

>  <readout_unit>
nM

>  <Matriptase (IC50 nM)>
0.923

$$$$
